Tested on: M. bovis BCG
Assay type: cell-based, Mycobacterium bovis BCG
Assay Endpoint: Frequency of spontaneously generated drug-resistant colonies

Reference set, count: 4
Compound	Measurement Target	Reported Measurement
NNC(=O)c1ccncc1	M. bovis BCG	2.0 × 10^−6
[H]/N=C(/N)N[C@H]1[C@H](O)[C@@H](O)[C@H](O[C@@H]2O[C@@H](C)[C@](O)(C=O)[C@H]2O[C@@H]2O[C@@H](CO)[C@H](O)[C@@H](O)[C@@H]2NC)[C@@H](N/C(N)=N\[H])[C@@H]1O	M. bovis BCG	3.1 × 10^−7
NC[C@H]1O[C@H](O[C@H]2[C@H](O)[C@@H](O[C@H]3O[C@H](CO)[C@@H](O)[C@H](N)[C@H]3O)[C@H](N)C[C@@H]2N)[C@H](O)[C@@H](O)[C@@H]1O	M. bovis BCG	6.3 × 10^−6
CC[C@@H](CO)NCCN[C@@H](CC)CO	M. bovis BCG	4.5 × 10^−6

Attention now turns to another entry.
Please state recorded Frequency of spontaneously generated drug-resistant colonies (tested on M. bovis BCG) of CO[C@H]1/C=C/O[C@@]2(C)Oc3c(C)c(O)c4c(O)c(c(/C=N/N5CCN(C)CC5)c(O)c4c3C2=O)NC(=O)/C(C)=C\C=C\[C@H](C)[C@H](O)[C@@H](C)[C@@H](O)[C@@H](C)[C@H](OC(C)=O)[C@@H]1C 5.2 × 10^−9
